Cited source: ChEMBL document CHEMBL3638971

target: RAC-alpha serine/threonine-protein kinase (Homo sapiens, UniProt P31749); test: TR-FRET Assay: Akt1 inhibitory activity of compounds of the present invention may be quantified0 employing the Akt1 TR-FRET assay as described in the following paragraphs. His-tagged human recombinant kinase full-length Akt1 expressed in insect cells was purchased form Invitrogen (part number PV 3599). As substrate for the kinase reaction the biotinylated peptide biotin-Ahx-KKLNRTLSFAEPG (C-terminus in am- ide form) was used which can be purchased e.g. from the company Biosynthan GmbH (Berlin-Buch, Germany).For the assay 50 nl of a IOOfold concentrated solution of the test compound in DMSO was pipetted into a black low volume 384well microtiter plate (Greiner Bio- One, Frickenhausen, Germany), 2 ul of a solution of Akt1 in assay buffer [50 mM TRIS/HCI pH 7.5, 5 mM MgCI2, 1 mM dithiothreitol, 0.02% (v/v) Triton X-100 (Sigma)] were added and the mixture was incubated for 15 min at 22C to allow pre-binding of the test compounds to the enzyme before the start of the kinase reaction.
Sequence (P31749 whole entry): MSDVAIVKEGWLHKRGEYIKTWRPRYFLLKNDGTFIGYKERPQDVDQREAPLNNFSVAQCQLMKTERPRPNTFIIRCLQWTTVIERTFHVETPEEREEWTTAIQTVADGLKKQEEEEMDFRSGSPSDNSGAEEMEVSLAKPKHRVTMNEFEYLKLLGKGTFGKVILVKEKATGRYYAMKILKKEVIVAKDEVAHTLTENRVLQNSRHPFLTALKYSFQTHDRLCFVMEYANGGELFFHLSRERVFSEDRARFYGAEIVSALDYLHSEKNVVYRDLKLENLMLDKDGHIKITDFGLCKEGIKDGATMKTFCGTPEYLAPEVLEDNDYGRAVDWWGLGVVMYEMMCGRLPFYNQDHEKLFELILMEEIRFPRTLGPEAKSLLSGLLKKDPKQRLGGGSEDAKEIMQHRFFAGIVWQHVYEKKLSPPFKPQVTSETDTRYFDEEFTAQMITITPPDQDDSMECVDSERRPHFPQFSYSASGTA
Observed Property: IC50 (nM)

In: Suppose we examine the compound `CSc1nc2nc(-c3ccc(CN4CCC(c5n[nH]c(-c6ccccn6)n5)CC4)cc3)c(-c3ccccc3)cn2n1` ; what IC50 value has been reported?
Out: 7

1. CSc1nc2nc(-c3ccc(CN4CC(c5n[nH]c(-c6ccccn6)n5)C4)cc3)c(-c3ccccc3)cn2n1
2. Cc1nc2nc(-c3ccc(CN4CC(c5n[nH]c(-c6ccccn6)n5)C4)cc3)c(-c3ccccc3)c(NC3CCC3)n2n1
3. Cc1cccc(-c2nc(C3CN(Cc4ccc(-c5nc6nc(C)nn6c(C)c5-c5ccccc5)cc4)C3)n[nH]2)n1
In: Could you please sort these 3 entries by IC50 from high to low? Returns: the labels listed in the requested order.
Out: 2, 3, 1
(2: 32 nM, 3: 10 nM, 1: 5 nM)

* * *

target: RAC-alpha serine/threonine-protein kinase (Homo sapiens); assay: TR-FRET Assay: Akt1 inhibitory activity of compounds of the present invention may be quantified0 employing the Akt1 TR-FRET assay as described in the following paragraphs. His-tagged human recombinant kinase full-length Akt1 expressed in insect cells was purchased form Invitrogen (part number PV 3599). As substrate for the kinase reaction the biotinylated peptide biotin-Ahx-KKLNRTLSFAEPG (C-terminus in am- ide form) was used which can be purchased e.g. from the company Biosynthan GmbH (Berlin-Buch, Germany).For the assay 50 nl of a IOOfold concentrated solution of the test compound in DMSO was pipetted into a black low volume 384well microtiter plate (Greiner Bio- One, Frickenhausen, Germany), 2 ul of a solution of Akt1 in assay buffer [50 mM TRIS/HCI pH 7.5, 5 mM MgCI2, 1 mM dithiothreitol, 0.02% (v/v) Triton X-100 (Sigma)] were added and the mixture was incubated for 15 min at 22C to allow pre-binding of the test compounds to the enzyme before the start of the kinase reaction.
Observed Property: IC50 (nM)

Recorded results for 2 compounds are shown here.
In: Suppose we examine the compound `CS(=O)(=O)c1nc2nc(-c3ccc(CN4CCC(c5n[nH]c(-c6ccccn6)n5)CC4)cc3)c(-c3ccccc3)cn2n1` ; what IC50 value has been reported?
Out: 54

In: Suppose we examine the compound `Cc1nc2nc(-c3ccc(CN4CC(c5n[nH]c(-c6ccccn6)n5)C4)cc3)c(-c3ccccc3)c(C)n2n1` ; what IC50 value has been reported?
Out: 7

a. CSc1nc2nc(-c3ccc(CN4CCC(c5n[nH]c(-c6cccc(C)n6)n5)CC4)cc3)c(-c3ccccc3)cn2n1
b. CNc1c(-c2ccccc2)c(-c2ccc(CN3CC(c4n[nH]c(-c5cccc(C)n5)n4)C3)cc2)nc2nc(C)nn12
In: Between the two listed entries a and b , which has its IC50 at the higher number? // return label of chosen record
Out: b
